These entries and their values trace back to PubChem BioAssay AID602191.

target: Scavenger receptor class B member 1 (Mus musculus) (UniProt Q61009); assay: enhancers of DiI-HDL lipid transfer via SR-BI – cell-based, ldlA[mSR-BI] CHO, DiI fluorescence, cherry-pick, dose response (AID 602191); settings: ldlA[mSR-BI] CHO cells, 3 h, at 35 µM (top of the series);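 further: cell fluorescence from internalized DiI-labeled HDL after washing; 0% = median of DMSO wells and 100% = twice the DMSO signal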
Sequence (Q61009 whole entry, looked up): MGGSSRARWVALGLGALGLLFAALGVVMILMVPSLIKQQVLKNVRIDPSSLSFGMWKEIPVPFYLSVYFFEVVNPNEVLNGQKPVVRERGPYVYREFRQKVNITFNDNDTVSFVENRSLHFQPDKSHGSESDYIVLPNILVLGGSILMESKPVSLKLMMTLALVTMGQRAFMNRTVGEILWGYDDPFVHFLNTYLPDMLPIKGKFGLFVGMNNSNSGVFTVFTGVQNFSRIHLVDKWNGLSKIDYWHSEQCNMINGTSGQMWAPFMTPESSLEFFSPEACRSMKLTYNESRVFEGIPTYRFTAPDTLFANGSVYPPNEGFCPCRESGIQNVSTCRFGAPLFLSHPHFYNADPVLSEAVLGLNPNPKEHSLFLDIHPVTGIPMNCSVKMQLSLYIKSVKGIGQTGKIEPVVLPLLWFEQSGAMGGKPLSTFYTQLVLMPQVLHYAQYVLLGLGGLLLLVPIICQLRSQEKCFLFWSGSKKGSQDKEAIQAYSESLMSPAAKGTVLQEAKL
property: activation (HDL uptake increase) (%)
The reply should contain only the number, in %.

COC(=O)CNC(=O)COC(=O)c1cc(Cl)cc(Cl)c1N | -8.63
O=C(c1ccc(NS(=O)(=O)c2cccc([N+](=O)[O-])c2)cc1)N1CCN(C(=O)c2ccco2)CC1 | -14.9

Provide one value: measured activation (HDL uptake increase) of O=C(c1ccc(CS(=O)Cc2ccccc2Cl)o1)N1CCN(c2ccccn2)CC1 (stereo not given)
-16.3

Provide one value: measured activation (HDL uptake increase) of CN(C)S(=O)(=O)c1ccc(N2CCCC2)c(C(=O)NC2CCC(O)CC2)c1 (stereo not given)
-3.29

Provide one value: measured activation (HDL uptake increase) of "O=C(CCCCCN1C(=O)c2ccccc2C1=O)Nc1ccc(C(=O)O)cc1"
-6.25

Provide one value: measured activation (HDL uptake increase) of "COc1ccccc1C(=O)NC(=O)COC(=O)c1cccc(NC(C)=O)c1"
-5.38

Provide one value: measured activation (HDL uptake increase) of O=C(CC(c1ccccc1)c1ccco1)Nc1nccs1 (stereo not given)
4.67

Provide one value: measured activation (HDL uptake increase) of CCOc1ccc(CN2CCNC(=O)C2CC(=O)NCCCOc2cccnc2)cc1 (stereo not given)
-10.4

Provide one value: measured activation (HDL uptake increase) of "Cc1[nH]c2ccccc2c1C(=O)CSC(=S)N(C)C1CCCCC1"
-5.9

Provide one value: measured activation (HDL uptake increase) of "Cc1ccc(N(C)C(=O)CN(C)S(=O)(=O)c2ccc3c(c2)n(C)c(=O)c(=O)n3C)cc1"
8.76

Provide one value: measured activation (HDL uptake increase) of "COc1ccc(CCNC(=S)N2CCN(S(=O)(=O)c3ccc(Cl)cc3)CC2)cc1"
5.66

----------
activation (HDL uptake increase) reference
target: Scavenger receptor class B member 1 (Mus musculus) (UniProt Q61009); assay: enhancers of DiI-HDL lipid transfer via SR-BI – cell-based, ldlA[mSR-BI] CHO, DiI fluorescence, cherry-pick, dose response (AID 602191); conditions: ldlA[mSR-BI] CHO cells, 3 h, at 35 µM (top of the series)
The reply should contain only the number, in %.

COc1ccccc1CN(C(=O)CCl)C(C(=O)NC1CCCCC1)c1ccncc1 (stereo not given) | 3.52
COC(=O)C(Cc1ccc(O)cc1)NC(=O)C1CCN(S(=O)(=O)c2ccc(C)cc2)CC1 (stereo not given) | -2.45

Provide one value: measured activation (HDL uptake increase) of "Cc1ccc(S(=O)(=O)NC(=O)Nc2nnc(C3CC3)s2)cc1"
9.12

Provide one value: measured activation (HDL uptake increase) of "CCn1nnnc1-c1ccc(OC)c(S(=O)(=O)Nc2ccc(C)c(C)c2)c1"
-11.8

Provide one value: measured activation (HDL uptake increase) of "CC(C)N1CCc2[nH]c(=S)[nH]c(=O)c2C1"
-0.502

Provide one value: measured activation (HDL uptake increase) of "O=C(CCC(=O)OCC(=O)c1ccc([N+](=O)[O-])cc1)Nc1ccccc1Cl"
-5.05

Provide one value: measured activation (HDL uptake increase) of "O=C(N/N=C\c1cccnc1)c1ccc(Br)s1"
-10.3

Provide one value: measured activation (HDL uptake increase) of COc1ccc(N(C(=O)CNC(=O)c2ccco2)C(C(=O)NC2CCCCC2)c2ccncc2)cc1 (stereo not given)
4.83

Provide one value: measured activation (HDL uptake increase) of "Cc1cccc(N2CCN(C(=S)c3ccc(-c4ccccc4[N+](=O)[O-])o3)CC2)c1"
-6.03

Provide one value: measured activation (HDL uptake increase) of "CCCCn1c(=N)n(CCOc2ccc(C)cc2)c2ccccc21"
-6.96

----------
target: Scavenger receptor class B member 1 (Mus musculus) (UniProt Q61009); assay: enhancers of DiI-HDL lipid transfer via SR-BI – cell-based, ldlA[mSR-BI] CHO, DiI fluorescence, cherry-pick, dose response (AID 602191); details: ldlA[mSR-BI] CHO cells, 3 h, at 35 µM (top of the series)
The source made the active and inactive calls.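 How the source made its calls: active means fitted curve reaches 40% activation at a concentration no higher than the top valid tested dose; inconclusive means flat fit between 30% and 70% activation, or poor fit; inactive means uptake decrease, flat fit within 30% of zero, the rest.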
property: activation (HDL uptake increase)

Below, each entry is followed by its recorded activation (HDL uptake increase) result.
CCCCc1nc2cc(C(=O)NCc3ccccn3)ccc2o1 | -3.25% (inactive)
CCCC(=O)Nc1cc(C(=O)O)ccc1S(=O)(=O)c1ccc(C)cc1 | 1.17% (inactive)

// fetch activation (HDL uptake increase) for "Cc1ccccc1-n1nc2c(c1NC(=O)c1ccco1)CS(=O)(=O)C2" ; system: Scavenger receptor class B member 1 (Mus musculus) (UniProt Q61009)
-9.94% (inactive)

// fetch activation (HDL uptake increase) for CCOC(=O)C1CCCN(S(=O)(=O)c2ccc3ccccc3c2)C1 (stereo not given) ; system: Scavenger receptor class B member 1 (Mus musculus) (UniProt Q61009)
-7.01% (inactive)

// fetch activation (HDL uptake increase) for "CCOC(CNC(=O)C1CCN(S(=O)(=O)c2ccc3nc4c(c(C(=O)O)c3c2)CCCCC4)CC1)OCC" ; system: Scavenger receptor class B member 1 (Mus musculus) (UniProt Q61009)
5.08% (inactive)

----------
molecular target: Scavenger receptor class B member 1 (Mus musculus); assay: enhancers of DiI-HDL lipid transfer via SR-BI – cell-based, ldlA[mSR-BI] CHO, DiI fluorescence, cherry-pick, dose response (AID 602191); conditions: ldlA[mSR-BI] CHO cells, 3 h, at 35 µM (top of the series);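 further: cell fluorescence from internalized DiI-labeled HDL after washing; 0% = median of DMSO wells and 100% = twice the DMSO signal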
Calls of active or inactive are those of the source.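 Rule for the calls: active = fitted curve reaches 40% activation at a concentration no higher than the top valid tested dose; inconclusive = flat fit between 30% and 70% activation, or poor fit; inactive = uptake decrease, flat fit within 30% of zero, the rest.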
property: activation (HDL uptake increase)

COc1ccc(CN(C(=O)c2cnccn2)C(C(=O)Nc2ccc(F)cc2)c2ccccc2)cc1 (stereo unspecified) | -4.64% (inactive)
O=C(NCc1cccs1)C1CCCN(C(=O)Nc2ccccc2)C1 (stereo unspecified) | 7.76% (inactive)
O=C(C1CCC(=O)N(C2CCCC2)C1)N1CCN(Cc2cccc(Cl)c2)CC1 (stereo unspecified) | -5.02% (inactive)

Provide one value: measured activation (HDL uptake increase) of COc1ccccc1N1C(=O)CCC1(C#N)c1ccc(Br)cc1 (stereo unspecified)
9.71% (inactive)

Provide one value: measured activation (HDL uptake increase) of "CN(C(=O)c1ccccc1Cl)c1ccccc1C(=O)NCc1ccccc1"
-10.9% (inactive)

Provide one value: measured activation (HDL uptake increase) of "COCCNC(=O)c1onc(CSc2ccc(F)c(F)c2)c1C(=O)O"
-4.96% (inactive)

Provide one value: measured activation (HDL uptake increase) of "CC(C)CC(=O)c1c(O)c(C=O)c(O)c2c1O[C@@]1(C)[C@@H](C2)C[C@H]2C[C@@H]1C2(C)C"
-25.2% (inactive)

Provide one value: measured activation (HDL uptake increase) of "O=C(CSc1nnc(Cc2cccs2)n1-c1ccccc1)NC1CCCCC1"
-15.7% (inactive)

Provide one value: measured activation (HDL uptake increase) of "Cn1c(=O)oc2cc(S(=O)(=O)NCCN3CCN(c4ccccc4)CC3)ccc21"
-5.09% (inactive)

Provide one value: measured activation (HDL uptake increase) of "NCCc1nnc(SCc2ccccc2)o1"
5.16% (inactive)

Provide one value: measured activation (HDL uptake increase) of CC1CC(C)CN(C(=O)CN2CCN(Cc3ccc(Cl)cc3)C2=O)C1 (stereo unspecified)
-4.58% (inactive)

----------
activation (HDL uptake increase) reference
target: Scavenger receptor class B member 1 (Mus musculus) (UniProt Q61009); assay: enhancers of DiI-HDL lipid transfer via SR-BI – cell-based, ldlA[mSR-BI] CHO, DiI fluorescence, cherry-pick, dose response (AID 602191); details: ldlA[mSR-BI] CHO cells, 3 h, at 35 µM (top of the series);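 further: cell fluorescence from internalized DiI-labeled HDL after washing; 0% = median of DMSO wells and 100% = twice the DMSO signal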
The reply should contain only the number, in %.

Below, each entry is followed by its recorded activation (HDL uptake increase) result.
Cc1ccc(S(=O)(=O)NC(=O)COc2ccccc2C)c(C)c1 | 11.3
CC(C)CCNCC(=O)NC(c1ccccc1)c1ccccc1 | -2.56
O=S(=O)(c1ccccc1)N1CCN(Cc2c(O)ccc3ccccc23)CC1 | -12
COc1cccc(C(=O)COC(=O)CCC(=O)c2ccccc2)c1 | -0.792
COc1ccc(/C(O)=C2/C(=O)C(=O)N(CCN3CCOCC3)C2c2ccccn2)cc1 (stereo not drawn) | -1.9

// fetch activation (HDL uptake increase) for "CCn1c(COC(=O)CNC(=O)c2ccccc2)nc2cc(S(=O)(=O)N(C)C)ccc21" ; system: Scavenger receptor class B member 1 (Mus musculus) (UniProt Q61009)
-13.2

----------
target: UniProtKB Q61009; experiment: enhancers of DiI-HDL lipid transfer via SR-BI – cell-based, ldlA[mSR-BI] CHO, DiI fluorescence, cherry-pick, dose response (AID 602191); settings: ldlA[mSR-BI] CHO cells, 3 h, at 35 µM (top of the series);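 further: cell fluorescence from internalized DiI-labeled HDL after washing; 0% = median of DMSO wells and 100% = twice the DMSO signal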
property: activation (HDL uptake increase) (%)
The reply should contain only the number, in %.

Cc1cc(NC(=O)CN2C(=O)NC(C)(c3ccc(OC(F)F)cc3)C2=O)no1 (stereo unspecified) | -7.97
Cc1ccc(-n2ncc3c(=O)n(CC(=O)N4CCN(c5ccccc5F)CC4)cnc32)cc1C | -20.1
CCc1cccc(N(C(=O)c2csnn2)C(C(=O)NC2CCCC2)c2cccnc2)c1 (stereo unspecified) | 6.32
Cc1cc(N2C(=O)C3C4C=CC(C4)C3C2=O)no1 (stereo unspecified) | -2.45
CCOc1ccc(N(CC(=O)NC2CCCCCC2)S(=O)(=O)c2ccccc2)cc1 | 11.8
CCCN1CCC(NC(=O)C2CCCCC2C(=O)O)CC1 (stereo unspecified) | -8.02

Provide one value: measured activation (HDL uptake increase) of "CN1CCN(C(=O)C2=C[C@@H](c3coc4ccccc4c3=O)C[C@@H](OCCCCO)O2)CC1"
-7.43

Provide one value: measured activation (HDL uptake increase) of "CCN(CC(=O)Nc1c(F)cccc1F)C(=O)CCCc1nc2ccccc2c(=O)[nH]1"
-5.94

Provide one value: measured activation (HDL uptake increase) of "O=C(CCSc1nnc(-c2ccco2)o1)Nc1ccc(Cl)cc1"
-2.84

Provide one value: measured activation (HDL uptake increase) of CC(Oc1ccccc1)C(=O)Nc1cccc(F)c1 (stereo unspecified)
5.9

Provide one value: measured activation (HDL uptake increase) of "COc1ccccc1C(=O)NCC(=O)NCc1cc(=O)n(C)c(=O)n1C"
-3.18
